Measured values drawn from ChEMBL document CHEMBL1201862 for this set.

# System: RPMI-8226
# Test Description: NCI tumour cell line growth inhibition, 48 h
Activity calls are given as the source filed them. Rule as the data show it: active = GI50 up to about 1.1 µM and inactive = higher.
Respond using exactly one of the listed classes: Y (active), N (inactive)

**Query** Short answer needed: outcome of this test for CCOC(=O)c1cc(I)c(-c2cc(C)no2)n1C ?
**Result** N

**Query** Short answer needed: outcome of this test for COc1ccc(/C=C\c2cc(OC)c(OC)c(OC)c2)cc1OC(=O)C(N)CCC(=O)O (stereo not drawn) ?
**Result** Y

**Query** Short answer needed: outcome of this test for COC(=O)/C=C\n1c(C)cc(=O)[nH]c1=O ?
**Result** N

**Query** Short answer needed: outcome of this test for CCc1n[nH]c(=O)n1/N=C/c1ccc(/C=N/n2c(CC)n[nH]c2=O)cc1 ?
**Result** N

**Query** Short answer needed: outcome of this test for COc1ccc2c3c([nH]c2c1[N+](=O)[O-])C(C)N(C(=O)/C=C/c1ccccc1)CC3 (stereo not drawn) ?
**Result** N

**Query** Short answer needed: outcome of this test for N#Cc1c(-c2ccco2)cc(-c2ccc(N)cc2)[nH]c1=O ?
**Result** N

**Query** Short answer needed: outcome of this test for C=CCc1cccc(/C=N\N/C(N)=N/O)c1O ?
**Result** N

**Query** Short answer needed: outcome of this test for C=CCNC(=O)NCCCC(NC(C)=O)C(=O)NCc1ccccc1 (stereo not drawn) ?
**Result** N

**Query** Short answer needed: outcome of this test for CC(C)(CN1CCCCC1)C(=O)CC(SCCS(=O)(=O)O)c1ccc(Br)cc1 (stereo not drawn) ?
**Result** N

**Query** Short answer needed: outcome of this test for CCOC(=O)CSc1[nH]c(NC(=S)Nc2ccccc2)c(C(N)=O)c1C(N)=O ?
**Result** N

**Query** Short answer needed: outcome of this test for COCc1cc2c(cc1/C=C/[N+](=O)[O-])OCO2 ?
**Result** N

**Query** Short answer needed: outcome of this test for OC(c1ccccc1)(c1cccnc1)C(O)(c1ccccc1)c1cccnc1 (stereo not drawn) ?
**Result** N

**Query** Short answer needed: outcome of this test for COc1ccc2c(c1)CCc1c-2n(CCN2CCOCC2)c2ccc(OC)cc12 ?
**Result** N

**Query** Short answer needed: outcome of this test for O=C1c2ccccc2CC12Cc1ccc3c(c1C2)CCC3 (stereo not drawn) ?
**Result** N

**Query** Short answer needed: outcome of this test for COc1ccc(N(C)Sc2ccccc2)cc1 ?
**Result** N

**Query** Short answer needed: outcome of this test for CC(C)N1CC2CN(Cc3ccccc3)CC(C1)C2=O ?
**Result** N

**Query** Short answer needed: outcome of this test for Nc1nc(O)c2nc3c(nc2n1)C(=O)N(c1ccc(C(=O)O)cc1)C3 ?
**Result** N

**Query** Short answer needed: outcome of this test for O=C(Nc1ccccn1)/C(=C\C(=O)c1ccc(Cl)cc1)Nc1ccccc1 ?
**Result** N

**Query** Short answer needed: outcome of this test for Oc1ccccc1/C=N/Nc1nnc2c3ccccc3c3ccccc3c2n1 ?
**Result** N

**Query** Short answer needed: outcome of this test for CC1(c2ccccc2)CC12C(=O)NC(=O)NC2=O (stereo not drawn) ?
**Result** N

**Query** Short answer needed: outcome of this test for CCOC(=O)[C@@H]1CCN2CN(c3ccc(OC)cc3)N=C(c3ccccc3)[C@@]12c1ccccc1 ?
**Result** N

**Query** Short answer needed: outcome of this test for CN(C)CCNC(=O)c1cccc2ccc(-c3ccc(O)cc3)nc12 ?
**Result** N

**Query** Short answer needed: outcome of this test for FC(F)(F)c1ccc(C2ON=C(c3ccccc3)N2C23CC4CC(CC(C4)C2)C3)cc1 (stereo not drawn) ?
**Result** N
